# tgt: T1, LRP1 CR3-5 (UniProt Q07954 852-973, limits assumed)
# T1 construct: domain: CR3-5; also called LRP1 CR domains
# assayProcedure: solid-phase binding, OD at highest concentration against highest OD of all ligands
Parameter: % max (percent of maximum binding). Scope: all listed entries.
Write down the numeric answer in % and omit the unit.

binder | parameter | result
MegaRAP1 d3 K251E, E270K (ligand, also called MegaRAP1 K251E, E270K) GLDRLRRVSHQGYTTEAKFEEPRVIDLWDLAQSANLTDKELEAFREELKYFEAKIEAHNHYQKQLEIAHEKLRHAESVGDGERVSRSREKHALLEGRTKELGYTVKKHLQDLSGRISRARHNEL | % max (percent of maximum binding) | 16

Pending binder:
Item MegaRAP1 d3 Y249H (ligand, also called MegaRAP1 Y249H) GLDRLRRVSHQGYTTEAKFEEPRVIDLWDLAQSANLTDKELEAFREELKHFKAKIEAHNHYQKQLEIAHEELRHAESVGDGERVSRSREKHALLEGRTKELGYTVKKHLQDLSGRISRARHNEL has what recorded % max (percent of maximum binding)?
2
